assay.method.text: NCI Yeast Anticancer Drug Screen. Data for the sgs1 mgt1 strain (AID 161);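 also: 0% = growth of cultures given vehicle only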
particulars: S. cerevisiae sgs1 mgt1 strain, at 50.0 µM (retest, dose inferred, filed as 5.0), active compounds read high
This is part of a sample that, as a whole, favours compounds with a hit. Of some 79,000 tested, about 15% had one in any assay.
parameter: growth inhibition (%)
State the answer as a number, implicitly in %.

# annotated cases, reported growth inhibition shown
Qu. Entry under review: C#CC(/C=C/Cl)(CC)OC(N)=O (stereo not drawn) . Reported growth inhibition?
Ans. 5

Qu. Entry under review: "C[CH2][Pb]([CH2]C)([CH2]C)[O]C(=O)COc1ccc(Cl)cc1Cl" . Reported growth inhibition?
Ans. 94

Qu. Entry under review: "O=P(c1cccc(C(F)(F)F)c1)(c1cccc(C(F)(F)F)c1)c1cccc(C(F)(F)F)c1.O=P(c1cccc(C(F)(F)F)c1)(c1cccc(C(F)(F)F)c1)c1cccc(C(F)(F)F)c1.[Cl][Sn]([Cl])([Cl])[Cl]" . Reported growth inhibition?
Ans. 79

Qu. Entry under review: "N=C(N)c1ccc(NN=Nc2cccc3c2Oc2ccccc2O3)cc1" . Reported growth inhibition?
Ans. 90

Qu. Entry under review: CC([CH2][Hg][Cl])c1ccccc1 (stereo not drawn) . Reported growth inhibition?
Ans. 99

New cases:
Qu. Entry under review: "O=S(O)O.O=S(O)O.[Co].[NH2-].[NH2-].[NH2-].[NH2-]" . Reported growth inhibition?
Ans. 22

Qu. Entry under review: CC1Oc2cc3c(-c4c(O)cc(O)c5c(O)c6c(cc45)OC(C)C(C)C6=O)c(O)cc(O)c3c(O)c2C(=O)C1C (stereo not drawn) . Reported growth inhibition?
Ans. 86

Qu. Entry under review: "CC1=C[C@H]2O[C@H]3C[C@H]4OC(=O)/C=C\C=C\C(=O)OCC[C@@H](C)[C@H](O)C(=O)OC[C@@]2(CC1)[C@@]4(C)[C@]31CO1" . Reported growth inhibition?
Ans. 99
